- assayed_system: T1, Oct6 DNA-binding domain (BD-Oct6) (Mus musculus (B6), UniProt P21952 317-416)
- T1 sequence: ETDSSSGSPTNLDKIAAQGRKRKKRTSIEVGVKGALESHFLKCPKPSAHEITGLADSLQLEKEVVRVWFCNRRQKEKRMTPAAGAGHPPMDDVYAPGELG
- assay_protocol: EMSA; 10% glycerol, 20 mM HEPES pH 7.8, 45 mM KCl, 10 mM NaCl, 1 mM EDTA, 1 mM DTT, 0.2 ug/uL BSA, 0.1% NP-40, 50 ng poly-dIdC; 20 ng each GST protein; room temperature 30 min (heterodimers 4 C); 6% PAGE 0.25x TBE
- measurement_setup: protein: recombinant; tags: GST (N-terminal, pGEX-6P-1); label: 32P-dCTP fill-in of the 5' (dG)5 overhangs of both strands (Methods; control probes are given with GGG)
observation_type: binding result

Identify measured binding result corresponding to 79 (dsDNA) DNA 1: GGGGGTGATAGTAACAAAAACCATTTTGTTTTTGGCTCCCCC DNA 2: GGGGGAGCCAAAAACAAAATGGTTTTTGTTACTATCACCCCC
no binding

Give the measured binding result for 98 (dsDNA) DNA 1: GGGGGTTATGAATACAATTCATTATAACCATGGATCCCCC DNA 2: GGGGGATCCATGGTTATAATGAATTGTATTCATAACCCCC
binds

Recall and state the measured binding result for 68 (dsDNA) DNA 1: GGGGGTTTGTTTGTTTGTTTAAAGGATTTATTTATTTATCCCCC DNA 2: GGGGGATAAATAAATAAATCCTTTAAACAAACAAACAAACCCCC .
binds

Answer with the recorded binding result of 17 (dsDNA) DNA 1: GGGGGTTTAAAGATTTGTTTCTTTATTATATGTAAGTACCCCC DNA 2: GGGGGTACTTACATATAATAAAGAAACAAATCTTTAAACCCCC only.
binds

---
Quote binding result reported for 7 (dsDNA) DNA 1: GGGGGCAACCACCTCTAAATGCCTACAAATTGTATGGTCATCCCCC DNA 2: GGGGGATGACCATACAATTTGTAGGCATTTAGAGGTGGTTGCCCCC please.
no binding
